# PROTOCOL NOTES: Quantitative High-Throughput drug screen in 47 multiple myeloma cell lines against the NCATS MIPE library collection: KMS12PE_JCRB cell viability assay (AID 1918972); further: nearly all actives have a fitted effect of over 30% in size; further: potency means the concentration at half of the fitted maximal effect;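 on viability: 100% = DMSO only wells and 0% = wells with media alone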
# SETUP CONDITIONS: KMS12PE myeloma viability, CellTiter-Glo ATP, 48 h; series mostly up to 45.8 µM
Inconclusive results are not listed. Activity calls are given as the source filed them. The call rests on the fitted dose curve; in most records, active means well fitted cell-killing curve with a large enough effect; inconclusive means small, poorly fitted or top-dose-only effect, or effect the other way; inactive means no such curve, though single readings can be large or run the other way.
RECORDED METRIC: Potency

[in] Looking for the measured Potency of `O=C1c2c(O)cccc2[C@@H]([C@@H]2O[C@H](CO)[C@@H](O)[C@H](O)[C@H]2O)c2cc(CO)cc(O)c21` , can you help?
[out] inactive

[in] Looking for the measured Potency of `O=C(O)C=Cc1ccc(Cn2ccnc2)cc1` , can you help?
[out] inactive

[in] Looking for the measured Potency of `N#CC(=C(N)Sc1ccc(N)cc1)c1ccccc1C(F)(F)F` , can you help?
[out] inactive

[in] Looking for the measured Potency of CCOC(=O)C1=C(C)NC(=S)NC1c1cccc(O)c1 (stereo not given) , can you help?
[out] 0.372 µM (active)

[in] Looking for the measured Potency of `Cc1cncc2cccc(S(=O)(=O)N3CCCN(C(=O)CN)C[C@@H]3C)c12` , can you help?
[out] 16.6 µM (active)

Dear colleague, could you please provide Potency for the compounds listed below?
1. CN1C(C(=O)Nc2ccccn2)=C(O)c2sc(Cl)cc2S1(=O)=O
2. CC(=O)OC[C@@H]1O[C@@H](n2ccc(=O)[nH]c2=O)[C@H](OC(C)=O)[C@H]1OC(C)=O
3. CCOC(=O)[C@H](CCc1ccccc1)N[C@@H](C)C(=O)N1[C@@H](C(=O)O)C[C@H]2CCC[C@@H]21
4. CCCc1nc(C(C)(C)O)c(C(=O)O)n1Cc1ccc(-c2ccccc2-c2nn[nH]n2)cc1
5. O=c1[nH]c(=O)n([C@H]2C[C@@H](O)[C@@H](CO)O2)cc1C=CBr

[out]
["inactive", "inactive", "7.43 µM (active)", "inactive", "inactive"]

###

# PROTOCOL NOTES: qHTS Screen of the MIPE 4.0 Collection Against Ewings Sarcoma (RDES) (AID 1259252); further: nearly all actives have a fitted effect of over 35% in size; further: potency means the concentration at half of the fitted maximal effect
# SETUP CONDITIONS: RD-ES Ewing sarcoma viability, CellTiter-Glo, 48 h; series mostly up to 45.8 µM
Results filed as inconclusive are left out. Calls of active or inactive are those of the source. Calls follow the shape of the dose curve; as a rule, active = well fitted inhibition curve with a large enough effect; inconclusive = small, poorly fitted or top-dose-only effect; inactive = no such curve, though single readings can be large or run the other way. Starred links: 1 amine or outer side, 2 acyl side, 3 side chain; linkers in the order of their positions; H or OH if unused. Positions of bridges follow the written chain, without caps; N, C: chain ends. Non-standard residues stand in square brackets, D forms with d. Residues, ends and D or L forms follow the SMILES beside them. Chains are numbered I, II in the order given. Actinocin(9to1) = Cc1c2oc3c(C)ccc(C(=O)[*:1])c3nc-2c(C(=O)[*:2])c(N)c1=O; NMeV = CN[CH](C(=O)O)C(C)C; Sar = CNCC(=O)O
RECORDED METRIC: Potency

Below are worked cases with known answers.
[in] Looking for the measured Potency of `CCOc1cc2ncc(C#N)c(Nc3ccc(OCc4ccccn4)c(Cl)c3)c2cc1NC(=O)C=CCN(C)C` , can you help?
[out] 118 nM (active)

[in] Looking for the measured Potency of C=C1CCC2[C@](C)(CO)C(O)CC[C@]2(C)C1CC=C1C(=O)OCC1O (some centres not stated) , can you help?
[out] inactive

[in] Looking for the measured Potency of `COc1cc([C@@H]2c3cc4c(cc3[C@@H](O[C@@H]3O[C@@H]5CO[C@@H](c6cccs6)O[C@@H]5[C@H](O)[C@@H]3O)[C@H]3COC(=O)[C@H]23)OCO4)cc(OC)c1O` , can you help?
[out] 264 nM (active)

[in] Looking for the measured Potency of `CC(C)c1cnn2c(NCc3ccccc3)cc(NCCCCCCN)nc12` , can you help?
[out] 3720 nM (active)

[in] Looking for the measured Potency of `C=CC[C@@H]1C=C(C)C[C@H](C)C[C@H](OC)[C@H]2O[C@@](O)(C(=O)C(=O)N3CCCC[C@H]3C(=O)O[C@H](C(C)=C[C@@H]3CC[C@H](O)[C@H](OC)C3)[C@@H](C)[C@@H](O)CC1=O)[C@@H](C)C[C@@H]2OC` , can you help?
[out] 2640 nM (active)

Dear colleague, could you please provide Potency for the compounds listed below?
1. C=C1C(=CC=C2CCC[C@]3(C)[C@@H]([C@H](C)CCCC(C)(C)O)CC[C@@H]23)C[C@@H](O)C[C@@H]1O
2. C[C@@]12C(=O)OC(=O)[C@@]1(C)C1CCC2O1
3. CC1(C)[C@H](O[C@H]2O[C@H](C(=O)O)[C@@H](O)[C@H](O)[C@H]2O[C@@H]2O[C@H](C(=O)O)[C@@H](O)[C@H](O)[C@H]2O)CC[C@@]2(C)[C@H]1CC[C@]1(C)[C@H]2C(=O)C=C2[C@H]3C[C@@](C)(C(=O)O)CC[C@]3(C)CC[C@]21C
4. CCCCCCCN(CC)CCCC(O)c1ccc(NS(C)(=O)=O)cc1 (configuration not stated)
5. C=C(C)[C@@H]1CC[C@]2(C(=O)O)CC[C@]3(C)[C@H](CC[C@@H]4[C@@]5(C)CC[C@H](O)C(C)(C)[C@@H]5CC[C@]43C)[C@@H]12
6. COc1ccc(S(=O)(=O)Nc2cccnc2Nc2ccc(O)cc2)cc1
7. NC(=O)N1CCC(CC(=O)N2CCC([C@H]3c4ncc(Br)cc4CCc4cc(Cl)cc(Br)c43)CC2)CC1
8. Cc1c2oc3c(C)ccc(C(=O)NC4C(=O)NC(C(C)C)C(=O)N5CCCC5C(=O)N(C)CC(=O)N(C)C(C(C)C)C(=O)OC4C)c3nc-2c(C(=O)NC2C(=O)NC(C(C)C)C(=O)N3CCCC3C(=O)N(C)CC(=O)N(C)C(C(C)C)C(=O)OC2C)c(N)c1=O (configuration not stated) (I: TVP[Sar][NMeV] / II: TVP[Sar][NMeV]; ester I:1-I:C, II:1-II:C; linker I:N-II:N via Actinocin(9to1); configuration not given here)

[out]
["2640 nM (active)", "2640 nM (active)", "inactive", "inactive", "inactive", "83.3 nM (active)", "20900 nM (active)", "inactive"]

###

# PROTOCOL NOTES: qHTS of pediatric cancer cell lines to identify multiple opportunities for drug repurposing: Primary screen for NB-EBc1 cells (AID 1347095)
# SETUP CONDITIONS: NB-EBc1 neuroblastoma viability, CellTiter-Glo luminescence, 48 h; series mostly up to 46 µM
# Description: Drug repurposing or repositioning has been offered as a strategy for drug development in oncology programs. This approach has special potential for childhood cancers and other rare or orphan diseases, where the expected return on new drug development has been a disincentive to pharmaceuticals. […] We employed a titration-based paradigm (quantitative high-throughput screening or qHTS), where all compounds were tested at multiple concentrations for their effect on cell viability. […]
Records with an inconclusive call do not appear. Activity calls are given as the source filed them. Calls come from the whole dose curve; as a rule, active = well fitted cell-killing curve with a large enough effect; inconclusive = small, poorly fitted or top-dose-only effect; inactive = no such curve, though single readings can be large or run the other way.
A correct response names exactly one class from 1.0 (active), 0.0 (inactive)

[in] Hi, do you know how `O=C(O)C(=O)Nc1cccc(C2=NN=N[N]2)c1` came out in this test?
[out] 0.0

---
[in] Hi, do you know how `O=C1NCCc2[nH]c(-c3ccncc3)cc21` came out in this test?
[out] 1.0

[in] Hi, do you know how `C=C(C)[C@@H]1CC[C@]2(C)CC[C@]3(C)[C@H](CC[C@@H]4[C@@]5(C)CC[C@H](O)C(C)(C)[C@H]5CC[C@]43C)[C@@H]12` came out in this test?
[out] 0.0

[in] Hi, do you know how OC[C@H]1OC(O)C[C@@H](O)[C@H]1O (stereo partly specified) came out in this test?
[out] 0.0

[in] Hi, do you know how `CCN(C(=O)c1c(O)c2c(Cl)cccc2n(C)c1=O)c1ccccc1` came out in this test?
[out] 0.0

[in] Hi, do you know how C[C@H]1O[C@H](O[C@H]2[C@H](O)[C@@H](O)[C@@H](O[C@H]3[C@H](O)[C@@H](O)C(O)O[C@H]3CO)O[C@H]2CO)[C@H](O)[C@@H](O)[C@H]1N[C@H]1C=C(CO)[C@@H](O)[C@H](O)[C@@H]1O (stereo partly specified) came out in this test?
[out] 0.0

###

# PROTOCOL NOTES: Quantitative High-Throughput drug screen in 47 multiple myeloma cell lines against the NCATS MIPE library collection: MM1R_ATCC cell viability assay (AID 1918981); further: nearly all actives have a fitted effect of over 35% in size
# SETUP CONDITIONS: MM1R multiple myeloma cells, CellTiter-Glo viability, 48 h; series mostly up to 45.8 µM
Results filed as inconclusive are left out. The source made the active and inactive calls. Calls come from the whole dose curve; as a rule, active = well fitted cell-killing curve with a large enough effect; inconclusive = small, poorly fitted or top-dose-only effect, or effect the other way; inactive = no such curve, though single readings can be large or run the other way.
A correct response names exactly one class from yes (active), no (inactive)

[in] Hi, do you know how Nc1nc(=O)n([C@H]2CSC(CO)O2)cc1F (stereo not given in full) came out in this test?
[out] no

---
[in] Hi, do you know how Nc1cccc2c1C(=O)N(C1CCC(=O)NC1=O)C2=O (stereo not given) came out in this test?
[out] yes

[in] Hi, do you know how `COc1ccc([C@@H]2CNC(=O)C2)cc1OC1CCCC1` came out in this test?
[out] no

[in] Hi, do you know how `COC1=C2C[C@@H](C)C[C@H](OC)[C@@H](O)[C@@H](C)C=C(C)[C@H](OC(N)=O)[C@@H](OC)C=CC=C(C)C(=O)NC(=CC1=O)C2=O` came out in this test?
[out] yes

[in] Hi, do you know how `CS[C@H]1SC[C@@H]2C(=O)N(C)[C@H](C(C)C)C(=O)OC[C@H](NC(=O)c3cnc4ccccc4n3)C(=O)N[C@H](C)C(=O)N(C)[C@@H]1C(=O)N(C)[C@H](C(C)C)C(=O)OC[C@H](NC(=O)c1cnc3ccccc3n1)C(=O)N[C@H](C)C(=O)N2C` came out in this test?
[out] yes

[in] Hi, do you know how `CC(=O)OCC(=O)[C@@]12N=C(C)O[C@H]1C[C@H]1[C@@H]3CCC4=CC(=O)C=C[C@]4(C)[C@@H]3[C@@H](O)C[C@@]12C` came out in this test?
[out] no

[in] Hi, do you know how `CCOc1cc2ncc(C#N)c(Nc3ccc(OCc4ccccn4)c(Cl)c3)c2cc1NC(=O)C=CCN(C)C` came out in this test?
[out] yes

[in] Hi, do you know how `N#CNC(=NCCCCCCOc1ccc(Cl)cc1)Nc1ccncc1` came out in this test?
[out] yes

[in] Hi, do you know how `N#Cc1c(C2CCNCC2)cc(-c2c(O)cccc2OCC2CC2)nc1N` came out in this test?
[out] yes

[in] Hi, do you know how `CC(C)(N)c1ccc(-c2nc3ccccc3nc2-c2ccccc2)cc1` came out in this test?
[out] yes

[in] Hi, do you know how `CC(C=CC1=C(C)CCCC1(C)C)=CC=CC(C)=CC(=O)Nc1ccc(O)cc1` came out in this test?
[out] yes

[in] Hi, do you know how C=CC(=O)Nc1cccc(Nc2nc(NC3CCC(N(C)C)CC3)nc3c2ncn3C(C)C)c1 (stereo not given) came out in this test?
[out] yes

[in] Hi, do you know how `C=CC(=O)N1CCc2ccc(-n3c(=O)ccc4cnc5ccc(-c6cnn(C)c6)cc5c43)cc21` came out in this test?
[out] yes

[in] Hi, do you know how `Cc1cncc2cccc(S(=O)(=O)N3CCCN(C(=O)CN)C[C@@H]3C)c12` came out in this test?
[out] no

[in] Hi, do you know how Nc1ccn(C2CO[C@H](CO)O2)c(=O)n1 (stereo not given in full) came out in this test?
[out] no
